# Test system: PRMT1 (protein arginine N-methyltransferase 1)
# experiment_description: PRMT1 binders on small-molecule microarrays, primary screen, biochemical, small-molecule microarray, 635 nm fluorescence (AID 1088);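 note: binding of Prmt1 protein to compounds spotted on small-molecule microarray slides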
# assay_context: small-molecule microarray binding, higher = more signal
Lab note: compare composite z-score against 1. Equal or greater, write Y. Smaller, write N.

Use the examples below as a reference point.
>>> assigned_category("COc1ccc(C(=O)Nc2cccc(CN3C(=O)[C@@]4(O[C@@H](CCn5cc(CCO)nn5)[C@H]([Si](C)(C)c5ccc(OC)cc5)[C@H]4C)c4ccccc43)c2)cc1")
"Y"
>>> assigned_category("CCCCCN1CC=CC23O[C@@H]4/C=C\\CCC(C)OC(=O)C4[C@H]2C(=O)N(CCCCCO)[C@@H]3C1=O (stereo not given in full)")
"N"
>>> assigned_category("N[C@@H](Cc1ccccc1)Cn1cc(-c2ccccc2)nn1")
"N"
>>> assigned_category("CC(=O)NCCCC[C@@H]1NC(=O)[C@@H]2C[C@H](C(=O)NCCCCCCNC(=O)CS)[C@H](c3ccc(O)cc3)N2C1=O")
"Y"

Task: Check if composite z-score >= 1 (inclusive). Item: O=C1OCCC=C[C@H]2OC34C=CCN(Cc5ccccc5)C(=O)[C@H]3N(CCCCCCO)C(=O)[C@@H]4C12 (stereo not given in full)
Result: N

Task: Check if composite z-score >= 1 (inclusive). Item: COc1ccccc1CN1C(=O)c2ccccc2[C@@H](C(=O)NCCN2CCOCC2)[C@@H]1c1ccc(CO)cc1
Result: N

Task: Check if composite z-score >= 1 (inclusive). Item: O=C1OCC=C[C@H]2OC34C=CCN(c5ccc(Cl)cc5)C(=O)[C@H]3N(CCCCCCO)C(=O)[C@@H]4[C@@H]12 (stereo not given in full)
Result: N

Task: Check if composite z-score >= 1 (inclusive). Item: COC(=O)[C@@]1(Cc2ccccc2)[C@H]2c3cc(C(=O)N4CCCC4)n(Cc4ccc(C)o4)c3C[C@H]2CN1C(=O)c1ccccc1
Result: N

Task: Check if composite z-score >= 1 (inclusive). Item: O=C1OCCC=C[C@H]2OC34C=CCN(c5ccc6ccccc6c5)C(=O)[C@H]3N(CCCCCO)C(=O)[C@@H]4C12 (stereo not given in full)
Result: N

Task: Check if composite z-score >= 1 (inclusive). Item: Cc1ccccc1C(O)C1C=CC2C(=O)N(C)C(=O)C2N1N1CCCCC1 (stereo not given)
Result: Y

Task: Check if composite z-score >= 1 (inclusive). Item: O=C1O[C@H](c2ccccc2)[C@H](c2ccccc2)N2[C@H]1[C@@H](C(=O)N1CCN(c3ncccn3)CC1)[C@]1(C(=O)Nc3ccccc31)[C@H]2c1ccc(OCCO)cc1
Result: Y

Task: Check if composite z-score >= 1 (inclusive). Item: COCCOC(=O)N1C(=O)[C@@]2(c3cc(C#CC4(O)CCCCCC4)ccc31)[C@H](C(=O)N1CCCCCCC1)[C@H]1C(=O)O[C@H](c3ccccc3)[C@H](c3ccccc3)N1[C@@H]2c1ccccc1OCCO
Result: Y

Task: Check if composite z-score >= 1 (inclusive). Item: CC(C)(C)OC(=O)CC[C@@]1(C(=O)O)N=C(c2ccc(OCCCO)cc2)O[C@@H]1c1ccccc1N=[N+]=[N-]
Result: Y

Task: Check if composite z-score >= 1 (inclusive). Item: CCCCC(O)C1C=CC2C(=O)N(C3CCCCC3)C(=O)C2N1Nc1ccc(OC)cc1 (stereo not given)
Result: Y

Task: Check if composite z-score >= 1 (inclusive). Item: C=CCNC(=O)[C@@H]1[C@H]2C(=O)O[C@H](c3ccccc3)[C@H](c3ccccc3)N2[C@H](c2ccc(OCCO)cc2)[C@@]12C(=O)Nc1ccccc12
Result: Y
